# Assay text: logP determination by HPLC on a reversed-phase column (C 18) at pH 2.7
# Format: physicochemical
# Applied conditions: reversed-phase C18 HPLC column, reversed-phase C 18, pH 2.7, Table 3, starting materials of formula (VII), read-out: logP (pH 2.7)
Outcome measure: chromatographic logP

Sample answers from the record:
COc1cc(Br)c(CN2CCC=CCCCC2=O)cc1OC [VII-4] : 2.78
O=C1CCCC=CCCN1Cc1cc2c(cc1Br)OCO2 [VII-5] : 2.94
CC1(C)O[C@@H]2C(=O)N(Cc3cc(F)ccc3Br)CCC=CC[C@H]2O1 [VII-2] : 3.09

P = Cc1ccc(CN2CCC=CC[C@H]3OC(C)(C)O[C@@H]3C2=O)c(Br)c1 [VII-1]
Q = CC1(C)O[C@@H]2C(=O)N(Cc3ccncc3Br)CCC=CC[C@H]2O1 [VII-3]
Input: Field: lower recorded chromatographic logP (choose P or Q ) Pick one; state its label.
Output: Q
(Q: 1.96, P: 3.41)
